Target: T1, human Gelatinase-A (human, UniProt P08253 110-660, limits assumed)
T1 sequence (looked up): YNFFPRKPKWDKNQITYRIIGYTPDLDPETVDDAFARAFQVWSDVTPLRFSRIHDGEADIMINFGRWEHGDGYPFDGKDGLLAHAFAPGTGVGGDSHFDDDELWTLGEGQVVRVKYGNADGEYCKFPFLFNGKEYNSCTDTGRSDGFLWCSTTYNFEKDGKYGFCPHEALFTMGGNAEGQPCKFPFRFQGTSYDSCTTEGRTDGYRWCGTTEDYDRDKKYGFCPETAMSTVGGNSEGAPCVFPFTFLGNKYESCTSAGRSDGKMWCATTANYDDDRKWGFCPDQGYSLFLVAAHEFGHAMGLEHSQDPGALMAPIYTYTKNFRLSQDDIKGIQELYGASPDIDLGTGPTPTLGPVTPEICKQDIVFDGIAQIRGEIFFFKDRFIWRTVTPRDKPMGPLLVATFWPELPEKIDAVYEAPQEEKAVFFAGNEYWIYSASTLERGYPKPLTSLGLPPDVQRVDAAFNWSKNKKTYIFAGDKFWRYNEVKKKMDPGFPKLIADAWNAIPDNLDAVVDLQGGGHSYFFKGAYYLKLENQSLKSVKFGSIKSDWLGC
Test: cell-based or functional assay
*1 amine or outer side, *2 acyl side, *3 side chain or, on linkers, in order; H or OH if unused. [ ]: non-standard residue; d: D form. The star is where a group is joined. Dnp = O=[N+]([O-])c1ccc(*)c([N+](=O)[O-])c1; C(Me) = CSC[C@H](N[*:1])C(=O)[*:2]
measured.parameter: Selectivity v. Coll-3 (unitless)
Number in unitless, nothing else.

Solved cases below.
>  <binder>
Dnp-GPLQMRG-NH2 (SMILES CSCC[C@H](NC(=O)[C@H](CCC(N)=O)NC(=O)[C@H](CC(C)C)NC(=O)[C@@H]1CCCN1C(=O)CNc1ccc([N+](=O)[O-])cc1[N+](=O)[O-])C(=O)N[C@@H](CCCNC(=N)N)C(=O)NCC(N)=O) [Dnp-GPLQMRG-NH2]

>  <measured.parameter>
Selectivity v. Coll-3

>  <assay.result>
15

$$$$
>  <binder>
Dnp-GPVNLHG[C(Me)]-NH2 (SMILES CSC[C@H](NC(=O)CNC(=O)[C@H](Cc1c[nH]cn1)NC(=O)[C@H](CC(C)C)NC(=O)[C@H](CC(N)=O)NC(=O)[C@@H](NC(=O)[C@@H]1CCCN1C(=O)CNc1ccc([N+](=O)[O-])cc1[N+](=O)[O-])C(C)C)C(N)=O) [Dnp-GPVNLHGC(Me)-NH2]

>  <measured.parameter>
Selectivity v. Coll-3

>  <assay.result>
15

$$$$

query: Report Selectivity v. Coll-3 for Dnp-GPSGIHL-NH2 (SMILES CC[C@H](C)[C@H](NC(=O)CNC(=O)[C@H](CO)NC(=O)[C@@H]1CCCN1C(=O)CNc1ccc([N+](=O)[O-])cc1[N+](=O)[O-])C(=O)N[C@@H](Cc1c[nH]cn1)C(=O)N[C@@H](CC(C)C)C(N)=O) [Dnp-GPSGIHL-NH2] please.
result: 8
